Recorded MIC values for a group of compounds are listed next.
# System: Streptococcus pneumoniae
# assayRemarks: Antibacterial activity against penicillin intermediate-resistant Streptococcus pneumoniae isolate I3 by agar dilution method
# Format: functional
Give just the number in µg/mL; leave the unit off.

Here's what some known entries look like.
{"columns": ["compoundSmiles", "MIC [µg/mL]"],
 "data": [
  ["CC[C@H]1OC(=O)[C@H](C)C(=O)[C@H](C)[C@@H](O[C@@H]2O[C@H](C)C[C@H](N(C)C)[C@H]2O)[C@](C)(OC)C[C@@H](C)/C(=N\\OC/C=C/c2ccc(OC)cc2)[C@H](C)[C@@H](O)[C@]1(C)O", 0.5],
  ["CC[C@H]1OC(=O)[C@H](C)C(=O)[C@H](C)[C@@H](O[C@@H]2O[C@H](C)C[C@H](N(C)C)[C@H]2O)[C@](C)(OC)C[C@@H](C)/C(=N\\OC/C=C/c2cccs2)[C@H](C)[C@@H](O)[C@]1(C)O", 0.125],
  ["CC[C@H]1OC(=O)[C@H](C)C(=O)[C@H](C)[C@@H](O[C@@H]2O[C@H](C)C[C@H](N(C)C)[C@H]2O)[C@](C)(OC)C[C@@H](C)/C(=N\\OC/C=C/c2ccc3c(c2)OCO3)[C@H](C)[C@@H](O)[C@]1(C)O", 0.25]
]}

So, CC[C@H]1OC(=O)[C@H](C)C(=O)[C@H](C)[C@@H](O[C@@H]2O[C@H](C)C[C@H](N(C)C)[C@H]2O)[C@](C)(OC)C[C@@H](C)/C(=N\OC/C=C/c2ccc(OC)c(OC)c2)[C@H](C)[C@@H](O)[C@]1(C)O ? Its MIC was 0.5

So, CC[C@H]1OC(=O)[C@H](C)C(=O)[C@H](C)[C@@H](O[C@@H]2O[C@H](C)C[C@H](N(C)C)[C@H]2O)[C@](C)(OC)C[C@@H](C)/C(=N\OC/C=C/c2cncc3ccccc23)[C@H](C)[C@@H](O)[C@]1(C)O ? Its MIC was 1

So, CC[C@H]1OC(=O)[C@H](C)C(=O)[C@H](C)[C@@H](O[C@@H]2O[C@H](C)C[C@H](N(C)C)[C@H]2O)[C@](C)(OC)C[C@@H](C)/C(=N\OC/C=C/c2cnc3ccccc3c2)[C@H](C)[C@@H](O)[C@]1(C)O ? Its MIC was 4

Data origin, for the record: ChEMBL document CHEMBL1156205
